assay: recombinant barcode read abundance after kanamycin selection (control-corrected) (log10(CPM+1)); higher = more efficient recombination; sequences stand for … in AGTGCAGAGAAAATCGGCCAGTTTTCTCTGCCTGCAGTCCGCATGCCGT…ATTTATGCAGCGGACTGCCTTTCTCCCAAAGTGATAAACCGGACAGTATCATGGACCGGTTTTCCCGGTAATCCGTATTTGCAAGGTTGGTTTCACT; site = the 11-nt target
Property: recombinant barcode read abundance (log10); scope: individual sequences

I am curious: what recombinant barcode read abundance (log10) value has been reported for GCGGGACAGTGGGTTCTAACCTGTTGCCTCT [GCGGGACCTAG_LTGcore_AG_RTGcore_AG] (site GCGGGACCTAG) (LTG core: AG, RTG core: AG) ?
0

====

test: recombinant barcode read abundance after kanamycin selection (control-corrected) (log10(CPM+1)); higher = more efficient recombination; sequences stand for … in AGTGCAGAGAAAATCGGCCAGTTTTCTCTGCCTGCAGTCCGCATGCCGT…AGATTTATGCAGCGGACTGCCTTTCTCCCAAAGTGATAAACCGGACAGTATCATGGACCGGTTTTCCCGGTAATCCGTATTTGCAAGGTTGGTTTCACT; site = the 11-nt target
Label Fulfilled when recombinant barcode read abundance (log10) is at or above 0.2; otherwise label Not fulfilled.

1. GGATGGACTTGGGTTCTAACCTGTTGCTT (site GGATGGACTAA): Fulfilled
2. TGTTGACCTTGGGTTCTAACCTGTTGCAT (site TGTTGACCTAT): Fulfilled
3. ACCGTGACTTGGGTTCTAACCTGTTGCCT (site ACCGGGACTAG): Not fulfilled
4. CTGAGAGCTTGGGTTCTAACCTGTTGCCT (site CAGAGAGCTAG): Fulfilled
5. TGTTCTCCTTGGGTTCTAACCTGTTGCCT (site TGTTCTCCTAG): Not fulfilled
6. CGGGCTACTTGGGTTCTAACCTGTTGCTA (site GGGGCAACTTA): Fulfilled
7. AGACTCCCTTGGGTTCTAACCTGTTGCCT (site AGTCTCCCTAG): Fulfilled
8. ACCGCTTCTTGGGTTCTAACCTGTTGCCT (site AACGCTTCTAG): Not fulfilled

Confirm if recombinant barcode read abundance (log10) reported for the sequence CCGAATTCTTGGGTTCTAACCTGTTGCTT (site TACCCACCTCT) is 0.2 or above.
Not fulfilled

Again, but for TAATCGGCTTGGGTTCTAACCTGTTGCCT (site TAATCGTCTAG)
Not fulfilled

====

Property: recombinant UMI read abundance (log10); scope: individual sequences
assay: recombinant UMI read abundance after kanamycin selection (control-corrected) (log10(CPM+1)); higher = more efficient recombination; extreme values may be limits of the assay; sequences stand for … in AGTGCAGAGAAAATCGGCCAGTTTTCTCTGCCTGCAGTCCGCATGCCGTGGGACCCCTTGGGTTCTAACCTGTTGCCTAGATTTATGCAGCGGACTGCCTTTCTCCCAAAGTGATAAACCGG…AGGTTGGTTTCACT; site = the 11-nt donor

1) CAGTGCTCATGGACCGGTTTTCCCGGTAATCCGTATTTGAA (site CAATGCTCTTT): 1.35
2) GCCTAGACATGGACCGGTTTTCCCGGTAATCCGTATTTGGG (site CCCTAGACTCC): 0.0341
3) TCTTACTCATGGACCGGTTTTCCCGGTAATCCGTATTTGCA (site TCTTACTCTTG): 0.535
4) GGGATTTCATGGACCGGTTTTCCCGGTAATCCGTATTTGGG (site GGGATTTCTCC): 0.679
5) GAGCGCACATGGACCGGTTTTCCCGGTAATCCGTATTTGAT (site GAGCGCACTAT): 1.73
6) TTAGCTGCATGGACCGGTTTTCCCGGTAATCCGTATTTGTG (site TTATCTGCTCA): 0.0225
7) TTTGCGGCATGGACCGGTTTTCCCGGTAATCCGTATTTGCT (site TTTACGGCTAG): 0.658
8) CGTACGTCATGGACCGGTTTTCCCGGTAATCCGTATTTGTT (site GGTACGTCTAA): 0.0115

I am curious: what recombinant UMI read abundance (log10) value has been reported for CTATCATCATGGACCGGTTTTCCCGGTAATCCGTATTTGCG (site CGATCATCTAG) ?
0

Again, but for CTCGACACATGGACCGGTTTTCCCGGTAATCCGTATTTGCT (site CTCAACACTAG)
1.72

Again, but for TTAGTTACATGGACCGGTTTTCCCGGTAATCCGTATTTGCC (site TTAGTTACTGG)
2.18

Again, but for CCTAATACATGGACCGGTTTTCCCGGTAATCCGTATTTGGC (site CCCAATACTGC)
0

Again, but for TAAAGGCCATGGACCGGTTTTCCCGGTAATCCGTATTTGTA (site TAAAGACCTTA)
0.00739

Again, but for CGAGTACCATGGACCGGTTTTCCCGGTAATCCGTATTTGGG (site CGAGTACCTCC)
0.0186

Again, but for CCGTATACATGGACCGGTTTTCCCGGTAATCCGTATTTGCT (site CCGTCTACTAG)
0

Again, but for GATACGACATGGACCGGTTTTCCCGGTAATCCGTATTTGTT (site GATACGACTAA)
0.259

Again, but for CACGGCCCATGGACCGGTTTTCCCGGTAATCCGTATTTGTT (site CATGGCCCTAA)
0.013

Again, but for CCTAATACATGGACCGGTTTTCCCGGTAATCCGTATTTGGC (site CCTAATCCTGC)
0.00798

Again, but for GGCGATCCATGGACCGGTTTTCCCGGTAATCCGTATTTGAA (site GGCCATCCTTT)
0.0198
